subject-of-test: pooled human IgG
// reported Enzyme Activity Endpoint Assay (purified): IgG per item
Your answer is read as ng/µL, so omit the unit and give the number.

PRT-627 (protein) MQITSVWTKGVTPLTPEQFRYNNEDVIHAPYLAHQGWYDITKAFDGKDNLLCGAATAGNMLHWWFDQNKEEIEAYLKKYGETQKIIFNNQELFDLKAAIDTKDSQTNSQLFNYFRDKAFPNLSARQLGVMPDLVLDMFINGYYLNVFKTQSTDVNRPYQDKDKRGGIFDAVFTRGDQTTLLTARHDLKNKGLNDISTIIKQELTEGRALALSHTYANVSISHVINLWGADFNAEGNLEAIYVTDSDANASIGMKKYFVGINAHGHVAISAKKIEGENIGAQVLGLFTLSSGKDIWQKLSLEHHHHHH; 124

Field request: Enzyme Activity Endpoint Assay (purified): IgG | item: PRT-330 (protein) MTITSVWTKGVTPPTPEDFRENNEDVLHAPYVANQGWYDITKTFDGKDNLLCGAATAGNMLHWWFDQNKEEIERYLKKHPEKQKIIFGNQELFDVKAAIDTKDSQTNSKLFDYFRDKAFPGLSARQLGVFPDLVLDMFINGYYLNLGKTQSTDVNRPYQDKDKRGGIFDAVFTRGVQTTLLTARHDLKNKGLNEISDLIKQELTEGKALALSHTYANVRINHVINLWGADFDAEGNLIAIYVTDSDANASIGMKKYFVGRNANGKVAISAKKIEGDNIGAQVLGLFTLSTGQDQWQKLS 352

Field request: Enzyme Activity Endpoint Assay (purified): IgG | item: PRT-56 (protein) MANQEIRYSEVTPYHVTSVWTKGVTPPANFTQGEDVFHAPYVANQGWYDINKTFNGKDDLLCGAATAGNMLHWWFDQNKEYIDRYLEEHPEKQKINFNGEQMFDVKEAIDTKNHQLDSKLFEYFKEKAFPYLSTKHLGVFPDLVLDMFINGYRLSLTNHGPTPVKEGSKDPRGGFFDAVFTRGDQSKLLTSRHDFKEKNLKEISDLIKKELTEGKALGLSHTYANVRINHVINLWGADFDSNGNLKAIYVTDSDSNASVGMKKYFVGVNSAGKVAISAKEIKEDNIGAQVLGLFTLSTGQDSWNQTN 125

Field request: Enzyme Activity Endpoint Assay (purified): IgG | item: PRT-659 (protein) MQITSVWTKGVTPLTPEQFRYNNEDVIHAPYLAHQGWYDITKAFDGKDNLLCGAATAGNMLHWWFDQNKTEIEAYLSKHPEKQKIIFNNQELFDLREAINTKDDQKDSKLFNYFREKAFPNLSARQLGVMPDLVLDMFINGYYLNVFKTQSTDVNRPYQDKDKRGGIFDAVFTRGDQTTLLTARHDLKNKGLNDISTIIKQELTEGRALALSHTYANVSISHVINLWGADFNAEGNLEAIYVTDSDANASIGMKKYFVGINAHGHVAISAKKIEGENIGAQVLGLFTLSSGKDIWQKLSLEHHHHHH 0

Attribution: patent US20250027068
